Could you please report measured selectivity ratio for the items listed next?
Molecular target: hERG potassium channel (Homo sapiens)
Sequence (Q12809 whole entry): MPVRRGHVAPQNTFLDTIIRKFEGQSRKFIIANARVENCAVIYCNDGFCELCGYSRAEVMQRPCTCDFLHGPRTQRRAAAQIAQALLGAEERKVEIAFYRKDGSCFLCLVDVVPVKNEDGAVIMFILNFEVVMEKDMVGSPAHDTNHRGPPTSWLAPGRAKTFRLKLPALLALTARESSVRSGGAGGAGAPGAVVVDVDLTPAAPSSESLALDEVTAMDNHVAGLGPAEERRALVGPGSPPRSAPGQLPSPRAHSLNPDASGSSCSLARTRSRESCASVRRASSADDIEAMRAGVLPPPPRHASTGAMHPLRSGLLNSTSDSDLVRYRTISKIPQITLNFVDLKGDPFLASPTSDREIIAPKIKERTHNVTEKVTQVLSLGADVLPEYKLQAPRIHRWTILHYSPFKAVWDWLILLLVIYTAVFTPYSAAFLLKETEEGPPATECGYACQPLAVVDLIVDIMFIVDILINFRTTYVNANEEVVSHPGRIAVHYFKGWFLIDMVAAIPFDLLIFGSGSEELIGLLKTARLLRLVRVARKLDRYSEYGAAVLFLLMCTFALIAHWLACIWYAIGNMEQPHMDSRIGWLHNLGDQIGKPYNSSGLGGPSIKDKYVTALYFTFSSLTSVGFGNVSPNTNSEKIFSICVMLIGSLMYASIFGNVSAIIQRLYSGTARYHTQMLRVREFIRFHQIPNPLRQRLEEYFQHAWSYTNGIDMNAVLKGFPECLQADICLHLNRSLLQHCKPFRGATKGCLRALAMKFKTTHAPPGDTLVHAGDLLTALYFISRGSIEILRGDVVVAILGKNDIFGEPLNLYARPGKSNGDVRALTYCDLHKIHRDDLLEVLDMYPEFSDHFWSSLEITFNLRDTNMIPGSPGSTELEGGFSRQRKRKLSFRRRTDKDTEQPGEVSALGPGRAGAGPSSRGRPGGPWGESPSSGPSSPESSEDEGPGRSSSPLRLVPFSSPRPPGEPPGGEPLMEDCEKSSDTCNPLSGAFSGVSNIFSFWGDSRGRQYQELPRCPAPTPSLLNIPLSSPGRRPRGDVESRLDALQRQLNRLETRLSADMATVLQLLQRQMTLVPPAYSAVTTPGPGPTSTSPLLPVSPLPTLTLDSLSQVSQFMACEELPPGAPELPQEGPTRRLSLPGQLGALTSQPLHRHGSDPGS
Assay: inhibition of binding of [3H]astemizole to cell membranes expressing hERG
Settings: human, cell membranes expressing hERG, probe [3H]astemizole

smiles_repr=COc1ccccc1Cn1nc(-c2cccc(Cl)c2Cl)c(N)nc1=N value_reported=0.4
smiles_repr=N=c1nc(N)c(-c2cccc(Cl)c2Cl)nn1Cc1ccccc1C(F)(F)F value_reported=0.3
smiles_repr=N=c1nc(N)c(-c2cccc(Cl)c2Cl)nn1Cc1cccc(C(F)(F)F)c1 value_reported=0.2
smiles_repr=C=CCn1nc(-c2cccc(Cl)c2Cl)c(N)nc1=N value_reported=1.6
smiles_repr=N=c1nc(N)c(-c2cccc(Cl)c2Cl)nn1Cc1ccoc1 value_reported=1.2

// each listed compound needs a value for selectivity ratio
1. N=c1nc(N)c(-c2cccc(Cl)c2Cl)nn1CCC(F)(F)F
2. N=c1nc(N)c(-c2cccc(Cl)c2Cl)nn1Cc1ccsc1
3. Cn1nc(-c2cccc(Cl)c2F)c(N)nc1=N

3.8
0.3
0.2
